Quick reference for abundance fitness among some variants
B1: Tudor domain-containing protein 3, residues 554 to 611; numbered along this chain, Q9H7E2 (parent)
chain: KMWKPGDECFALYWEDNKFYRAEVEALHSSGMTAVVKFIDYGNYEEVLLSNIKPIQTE

Variants of: B1
Assay: abundance fitness (aPCA) (normalised: wild type 0, dead -1); higher = more abundant; growth selection in yeast, the domain comes from the species named
Conditions: Homo sapiens

Recorded abundance fitness (variant "E8N" ): -0.077

Recorded abundance fitness (variant "G31D" ): -0.198

Recorded abundance fitness (variant "A34C" ): -0.072

Recorded abundance fitness (variant "T33L" ): -0.331

Recorded abundance fitness (variant "E23S" ): 0.013

Recorded abundance fitness (variant "V35Y" ): -0.092

Recorded abundance fitness (variant "F38E" ): -0.997

Recorded abundance fitness (variant "E15C" ): -0.21

Recorded abundance fitness (variant "P54C" ): -0.429

Recorded abundance fitness (variant "L49C" ): -0.243

Recorded abundance fitness (variant "Y44Q" ): -0.206

Recorded abundance fitness (variant "Q56L" ): -0.07

Recorded abundance fitness (variant "E25N" ): -0.111

Recorded abundance fitness (variant "V47Y" ): -0.886

Recorded abundance fitness (variant "P5A" ): -0.017

Recorded abundance fitness (variant "K1L" ): -0.187

Recorded abundance fitness (variant "N51Y" ): -0.678

The measurements presented in this section are drawn from the Human Domainome abundance scans (Beltran et al. 2025).
